Test: chemical genetic growth profiling, strain panel (AID 1159580);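 also: tested at 20 µM; growth read once vehicle control cultures reached saturation at 30 °C; 1 = growth at the plate median or of vehicle wells; lower values mean less growth of the strain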
Details: S. cerevisiae deletion strains, growth OD, locus YJL134W, strain LCB3
About 2,000 (36%) of roughly 5,500 compounds were called active. Another 18% or so got no clear call; they are omitted. Rule as the data show it: active = normalized growth mostly below about 0.91 (no sharp cut-off); inconclusive = no clear call, values can overlap the other calls; inactive = mostly above about 0.92. The list shows a part of the results.
// allowed return values: 1.0 for active, 0.0 for inactive

Check out these entries, answers already filled in.
Nc1ccc(C(=O)O)c(O)c1 = 0.0
COC(=O)C1=C(C)NC(C)=C(C(=O)OCCN(C)Cc2ccccc2)C1c1cccc([N+](=O)[O-])c1 (configuration not stated) = 0.0
CC(=O)O[C@@H]1CC2C(C)(C)CCC(=O)[C@]2(C)C2CC[C@@]3(C)[C@H](c4ccoc4)OC(=O)C4OC43[C@@]21C (some centres not stated) = 0.0
COc1cccc2c1cc([N+](=O)[O-])c1c(C(=O)O)cc3c(c12)OCO3 = 0.0
CC(C)Oc1ccc2c(=O)cc(-c3ccccc3)oc2c1 = 1.0
COC(=O)C1=C(C)NC(C)=C(C(=O)OC)C1c1ccccc1[N+](=O)[O-] = 0.0

Record lookup: outcome of this test for CCC(CCC(C)[C@H]1CCC2C3CC=C4C[C@@H](O)CC[C@]4(C)C3CC[C@@]21C)C(C)C (some centres not stated) ?
0.0

Record lookup: outcome of this test for Nc1ccc(C(=O)O)c(O)c1 (tested in a mixture with another compound) ?
0.0

Record lookup: outcome of this test for "CC1=C2C(=CO[C@H](C)[C@H]2C)C(=O)C(C(=O)O)=C1O" ?
0.0
